- Test system: HT29 colon
- Assay notes: NCI-60 one-dose screen, 48 h
- Study conditions: 10 µM unless noted
- Experimental: Growth inhibition of the HT29 human tumor cell line is measured as a screen for anti-cancer activity. Cells are grown in 96 well plates and exposed to the test compound for 48 hours. Compounds are tested at a single concentration, which is 10^-5 M for most compounds. The reported endpoint is percent growth (GI% or GIPRCNT), where numbers from 0 - 100% represent growth inhibition, and numbers from -100% - 0 represent cell death. For example, a value of 40 represents 60% growth inhibition. […]
About 83,000 compounds went through this panel and 20% of them were active in at least one assay; those are over-represented in the sample as a whole. Calls of active or inactive are those of the source. How the source made its calls: active means growth percent below 10; inactive means the rest.
Hello, when you answer, please use one of the following outcomes: true (active), false (inactive)

INPUT: Per the records of this test, what outcome belongs to `CCN(CC)c1ccc(/C=N/NC(=O)CSc2nc3ccccc3c(=O)n2CCc2ccc(S(N)(=O)=O)cc2)c(O)c1` ?
OUTPUT: false

====

Could you please report measured growth for the items listed next?
- System: CCRF-CEM leukemia
- Assay notes: NCI-60 one-dose screen, 48 h (100 = growth as untreated, 0 = no growth, -100 = all killed)
- Study conditions: 10 µM unless noted
About 83,000 compounds went through this panel and 20% of them were active in at least one assay; those are over-represented in the sample as a whole.
One number for each entry, in %.

Below, 5 compounds whose answers are already recorded.
- Compound: "NC1[C@H](c2c[nH]c3ccccc23)c2c([nH]c3ccccc23)[C@H]1c1c[nH]c2ccccc12 (stereo partly drawn)"
  growth (%): 94.5
- Compound: "COc1ccc(/C=N/NC(=O)c2cnn3c2NC(c2ccccc2)C3)cc1OC (stereo not drawn)"
  growth (%): 66.7
- Compound: "Oc1cccc(CCc2ccc(Oc3cc(CCc4cccc(O)c4)cc(O)c3O)cc2)c1"
  growth (%): 24.1
- Compound: "CCOC(=O)c1cc(C(=O)c2ccc(OC)cc2)n2ccc(/C=C/c3cc[n+](CC(=O)c4ccc(OC)cc4)cc3)cc12"
  growth (%): -22.5
- Compound: "O=C(/C=C(O)/C=C/c1ccc(SC(F)(F)F)cc1)/C=C/c1ccc(SC(F)(F)F)cc1"
  growth (%): 60.7

// batch mode: one growth value per listed entry
1. COc1ccc(-c2[nH][nH]c(=O)c2-c2nc3ccccc3s2)cc1
2. C=C(CBr)[C@@H]1CC[C@]2(COC(C)=O)CC[C@]3(C)[C@H](CC[C@@H]4[C@@]5(C)CCCNC(C)(C)[C@@H]5CC[C@]43C)[C@@H]12
3. C=C(C)[C@@H]1CC[C@]2(CN)CC[C@]3(C)[C@H](CC[C@@H]4[C@@]5(C)CCCNC(C)(C)[C@@H]5CC[C@]43C)[C@@H]12

OUTPUT:
1. 99.1
2. 33.8
3. -27.4

====

- Tested on: NCI-H322M lung
- Assay notes: NCI-60 one-dose screen, 48 h
- Study conditions: 10 µM unless noted
About 83,000 compounds went through this panel and 20% of them were active in at least one assay; those are over-represented in the sample as a whole. Calls of active or inactive are those of the source. How the source made its calls: active means growth percent below 10; inactive means the rest.
Hello, when you answer, please use one of the following outcomes: active, inactive

- Compound: "COc1cc(C2C3=C(COC3=O)N(CCO)c3cc4c(cc32)CCC4)cc(OC)c1OC (stereo not drawn)"
  Assigned label: "inactive"
- Compound: "O=C(CCN1CCCC1)Nc1ccc2c(NCc3ccccc3)c3ccccc3nc2c1"
  Assigned label: "active"
- Compound: "O=C(Nc1ccccc1)Nc1ccc2cc3ccc(NC(=O)Nc4ccccc4)cc3nc2c1"
  Assigned label: "inactive"
- Compound: "CC(C)(C)c1ccc(NS(=O)(=O)c2ccc3nc(NC(=O)c4cnccn4)[nH]c3c2)cc1"
  Assigned label: "inactive"
- Compound: "CNCCn1c(=O)c2cc(OC)c(OC)cc2c2ccc3cc4c(cc3c21)OCO4"
  Assigned label: "active"
- Compound: "COc1cc2nc(-c3ccc(C(F)(F)F)cc3)cc(OCCCN3CCCC3)c2cc1OC"
  Assigned label: "inactive"
- Compound: "C=C(C)[C@@H]1CC[C@]2(C(=O)N[C@@H](Cc3ccccc3)C(=O)OC)CC[C@]3(C)[C@H](CC[C@@H]4[C@@]5(C)CCC(=O)C(C)(C)[C@@H]5CC[C@]43C)[C@@H]12"
  Assigned label: "inactive"

INPUT: Per the records of this test, what outcome belongs to `O=C1NN(C(=O)c2ccccc2)C(c2ccc(Cl)c(Cl)c2)=C/C1=C\c1ccc([N+](=O)[O-])cc1` ?
OUTPUT: inactive

Values were extracted from PubChem BioAssay (NCI).
